TESTED_TARGET: Microtubule-associated protein tau (Homo sapiens, UniProt P10636)
Sequence (P10636 whole entry): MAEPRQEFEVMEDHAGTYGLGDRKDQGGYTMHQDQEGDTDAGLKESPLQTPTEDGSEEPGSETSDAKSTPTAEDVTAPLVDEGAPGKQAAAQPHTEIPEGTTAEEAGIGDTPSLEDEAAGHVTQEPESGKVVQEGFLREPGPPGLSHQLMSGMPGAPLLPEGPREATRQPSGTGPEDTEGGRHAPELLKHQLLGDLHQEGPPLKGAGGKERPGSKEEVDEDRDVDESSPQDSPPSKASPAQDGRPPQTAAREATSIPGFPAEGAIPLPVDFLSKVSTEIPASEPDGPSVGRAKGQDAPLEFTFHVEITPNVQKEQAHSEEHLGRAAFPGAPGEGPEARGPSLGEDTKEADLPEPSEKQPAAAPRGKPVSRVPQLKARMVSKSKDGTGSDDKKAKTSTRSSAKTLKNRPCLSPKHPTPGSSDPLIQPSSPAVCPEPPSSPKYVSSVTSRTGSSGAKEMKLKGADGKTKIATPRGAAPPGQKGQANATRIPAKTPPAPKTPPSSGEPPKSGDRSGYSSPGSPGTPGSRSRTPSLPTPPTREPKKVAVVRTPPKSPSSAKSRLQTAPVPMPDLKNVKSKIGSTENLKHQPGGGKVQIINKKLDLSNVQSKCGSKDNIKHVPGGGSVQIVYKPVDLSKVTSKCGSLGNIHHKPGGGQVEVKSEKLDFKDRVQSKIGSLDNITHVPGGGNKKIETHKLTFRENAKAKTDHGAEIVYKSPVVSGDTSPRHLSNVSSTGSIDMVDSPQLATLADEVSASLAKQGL
TEST_PROTOCOL: Inhibition of arachidonic acid-induced full-length four-repeat tau 2N4R (unknown origin) aggregation measured upto 19 hrs by TEM analysis
VALUE_TYPE: pIC50
Schema: pIC50 number; meaning minus log10 of the concentration expressed in molar units.

Lab note: need pIC50 for "CCC(/C=C1\Sc2ccc(OC)cc2N1CCO)=C\c1sc2ccc(OC)cc2[n+]1CCO" on Microtubule-associated protein tau (Homo sapiens, UniProt P10636), anyone have it?
6.52

----------
TESTED_TARGET: Alpha-synuclein (Homo sapiens) (UniProt P37840)
TEST_PROTOCOL: Inhibition of recombinant alpha-Synuclein (unknown origin) aggregation assessed as reduction in fluorescence intensity by measuring residual activity at 100 uM measured every 20 mins for 40 to 70 hrs by Thioflavin T based fluorescence analysis relative to control
CONDITION_DESCRIPTION: time 40-70 hrs
This listing pairs compounds with measured Activity.
Express your answer in %, writing the number without its unit.

Illustrative cases are given below, each with its answer.
INSERT INTO measurements (given_smiles, recorded_measurement) VALUES
  ('O=C(Nc1ccccc1I)Nc1cccc2[nH]ccc12', 38.3),
  ('O=S(=O)(Nc1ccc2[nH]ccc2c1)c1ccccc1I', 59.7),
  ('COc1cccc2sc(NS(=O)(=O)c3ccccc3I)nc12', 5.8);

What value of Activity has been recorded for this entry: "COc1cccc2sc(NS(=O)(=O)c3ccc([N+](=O)[O-])cc3)nc12"
9.5

What value of Activity has been recorded for this entry: "COc1cccc2sc(NC(=O)c3ccc(F)cc3)nc12"
103

----------
TESTED_TARGET: Alpha-synuclein (Homo sapiens) (UniProt P37840)
TEST_PROTOCOL: Inhibition of recombinant alpha-Synuclein (unknown origin) aggregation assessed as reduction in fluorescence intensity by measuring residual activity at 100 uM measured every 20 mins for 40 to 70 hrs by Thioflavin T based fluorescence analysis relative to control
CONDITION_DESCRIPTION: time 40-70 hrs
Assign class by Activity: not lower than 80% means y; lower than 80% means n.

Observe how each entry below is paired with its result.
INSERT INTO measurements (given_smiles, tested_target, qualitative_label) VALUES
  ('COc1cccc2sc(NC(=O)c3ccc(I)cc3)nc12', 'Alpha-synuclein (Homo sapiens) (UniProt P37840)', 'y'),
  ('COc1cccc2sc(NS(=O)(=O)c3ccc(F)cc3)nc12', 'Alpha-synuclein (Homo sapiens) (UniProt P37840)', 'n'),
  ('COc1cccc2sc(NC(=O)Nc3ccccc3I)nc12', 'Alpha-synuclein (Homo sapiens) (UniProt P37840)', 'y');

// inclusive: Activity at least 80%? input: "COc1cccc2sc(NC(=O)c3ccccc3C)nc12"
y

// inclusive: Activity at least 80%? input: "COc1cccc2sc(NS(=O)(=O)c3ccc(C(F)(F)F)cc3)nc12"
n

----------
TESTED_TARGET: Alpha-synuclein (Homo sapiens) (UniProt P37840)
TEST_PROTOCOL: Inhibition of recombinant alpha-Synuclein (unknown origin) aggregation assessed as reduction in fluorescence intensity by measuring residual activity at 100 uM measured every 20 mins for 40 to 70 hrs by Thioflavin T based fluorescence analysis relative to control
CONDITION_DESCRIPTION: time 40-70 hrs
Assign class by Activity: not lower than 60% means fulfilled; lower than 60% means not fulfilled.

Observe how each entry below is paired with its result.
INSERT INTO results (given_smiles, qualitative_label) VALUES
  ('COc1cccc2sc(NC(=O)Nc3ccccc3[N+](=O)[O-])nc12', 'fulfilled'),
  ('COc1cccc2sc(NS(=O)(=O)c3ccc(Br)cc3)nc12', 'not fulfilled'),
  ('O=[N+]([O-])c1ccc(S(=O)(=O)Nc2ccc3cc[nH]c3c2)cc1', 'fulfilled'),
  ('COc1cccc2sc(NS(=O)(=O)c3ccc(Cl)cc3)nc12', 'not fulfilled'),
  ('COc1cccc2sc(NS(=O)(=O)c3ccccc3[N+](=O)[O-])nc12', 'not fulfilled');

// inclusive: Activity at least 60%? input: "COc1cccc2sc(NC(=O)Nc3ccccc3F)nc12"
fulfilled

// inclusive: Activity at least 60%? input: "O=S(=O)(Nc1cccc2[nH]ccc12)c1ccccc1I"
fulfilled

// inclusive: Activity at least 60%? input: "COc1cccc2sc(NC(=O)c3cccs3)nc12"
fulfilled

The measurements presented in this section are drawn from ChEMBL document CHEMBL5523695.
